Target: human NaPi-IIb (Homo sapiens)
Construct: expressed in transfected cells
Sequence (O95436 1-690): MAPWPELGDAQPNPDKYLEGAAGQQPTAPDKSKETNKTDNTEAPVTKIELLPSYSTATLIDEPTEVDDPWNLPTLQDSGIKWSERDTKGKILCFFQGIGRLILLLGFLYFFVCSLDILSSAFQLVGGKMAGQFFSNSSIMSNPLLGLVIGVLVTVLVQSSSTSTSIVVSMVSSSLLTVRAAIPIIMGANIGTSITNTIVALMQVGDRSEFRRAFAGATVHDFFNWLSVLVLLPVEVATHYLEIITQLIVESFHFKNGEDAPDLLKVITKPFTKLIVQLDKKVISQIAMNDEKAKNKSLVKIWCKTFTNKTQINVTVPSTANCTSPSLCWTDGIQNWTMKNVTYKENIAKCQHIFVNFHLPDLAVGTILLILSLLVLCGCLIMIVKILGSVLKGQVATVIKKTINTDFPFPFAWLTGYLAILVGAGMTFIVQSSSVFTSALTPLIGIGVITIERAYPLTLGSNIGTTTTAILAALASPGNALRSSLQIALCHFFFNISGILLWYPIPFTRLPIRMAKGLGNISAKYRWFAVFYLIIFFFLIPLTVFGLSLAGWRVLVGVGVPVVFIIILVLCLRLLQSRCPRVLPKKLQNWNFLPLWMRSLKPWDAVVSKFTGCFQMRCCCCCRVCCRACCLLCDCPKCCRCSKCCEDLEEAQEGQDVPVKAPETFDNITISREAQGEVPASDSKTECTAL
Experiment: Inhibitory effect on 33PO4 uptake into human NaPi-IIb-expressing CHO cells
Format: cell-based
Conditions: read-out: IC50
Known pIC50 of a selection of molecules
Units for pIC50: none; it is -log10 of a concentration expressed in mol/L.

mol	observed.property	endpoint.value
COC(=O)CN(C)CCOc1ccc(CN2C(=O)C(C(=O)Nc3ccc(C(F)(F)F)cc3-c3cc(C(F)(F)F)ncn3)=C(O)C3(CCC3)N2C)c(F)c1F	pIC50	5.16
C[C@]12CCCN1N(Cc1cccc(F)c1Cl)C(=O)C(C(=O)Nc1cc(F)c(Br)c(F)c1)=C2O	pIC50	5.66

Request: Recall the recorded pIC50 for `Cc1c(-c2cc(C(F)(F)F)ccc2NC(=O)C2=C(O)C3(CCC3)N(C)N(Cc3ccc(OCCN4CCOCC4)c(F)c3F)C2=O)ncnc1C(F)(F)F` with human NaPi-IIb (Homo sapiens) and state it.
Result: 5.07

Request: Recall the recorded pIC50 for `C[C@]12CCCN1N(Cc1ccc(F)cc1F)C(=O)C(C(=O)Nc1ccc(C(F)(F)F)cc1-c1ccc(C(F)(F)F)nc1)=C2O` with human NaPi-IIb (Homo sapiens) and state it.
Result: 5.72

Request: Recall the recorded pIC50 for `CSc1ccc(-c2cc(C(F)(F)F)ccc2NC(=O)C2=C(O)[C@@]3(C)CCCN3N(Cc3ccc(C#CCCCCC(=O)O)c(F)c3F)C2=O)cn1` with human NaPi-IIb (Homo sapiens) and state it.
Result: 5.02

###

Target: human NaPi-IIb (Homo sapiens)
Construct: expressed in transfected cells
Assay: Inhibitory effect on 33PO4 uptake into human NaPi-IIb-expressing CHO cells
Assay type: cell-based
Conditions: read-out: IC50
observed.property: IC50 (µM)
Express your answer in µM, writing the number without its unit.

// solved cases for IC50 follow
compound	uom	IC50
CN1N(Cc2ccc(OCCN3CCOCC3)c(F)c2F)C(=O)C(C(=O)Nc2ccc(Cl)cc2-c2ccc(C(F)(F)F)nc2)=C(O)C12CCCC2 [Example 288]	µM	11
C[C@]12CCCN1N(Cc1cccc([N+](=O)[O-])c1)C(=O)C(C(=O)Nc1ccc(Br)c(F)c1)=C2O [Example 27]	µM	9
C[C@]12CCCN1N(Cc1cccc(F)c1F)C(=O)C(C(=O)Nc1ccc(Br)cc1)=C2O [Example 77]	µM	8.9

Request: Recall the recorded IC50 for COC(=O)COc1ccc(CN2C(=O)C(C(=O)Nc3ccc(C(F)(F)F)cc3-c3ccc(C(F)(F)F)nc3)=C(O)[C@@]3(C)CCCN23)c(F)c1F [Example 150] with human NaPi-IIb (Homo sapiens) and state it.
Result: 9

Request: Recall the recorded IC50 for Cc1c(C#N)ncnc1-c1cc(C(F)(F)F)ccc1NC(=O)C1=C(O)[C@@]2(C)CCCN2N(Cc2cccc(F)c2F)C1=O [Example 24] with human NaPi-IIb (Homo sapiens) and state it.
Result: 8.1

###

Molecular target: human NaPi-IIb (Homo sapiens, UniProt O95436)
Construct: expressed in transfected cells
Assay: Inhibitory effect on 33PO4 uptake into human NaPi-IIb-expressing CHO cells
Format: cell-based
Conditions: read-out: IC50
observed.property: pIC50
Units for pIC50: none; it is -log10 of a concentration expressed in mol/L.

// solved cases for pIC50 follow
mol	system.tested	pIC50
COc1cccc(-c2cc(C(F)(F)F)ccc2NC(=O)C2=C(O)[C@@]3(C)CCCN3N(Cc3ccc(C#CCCCO)c(F)c3F)C2=O)c1OC	human NaPi-IIb (Homo sapiens, UniProt O95436)	4.92
C[C@]12CCCN1N(Cc1cccc(F)c1F)C(=O)C(C(=O)Nc1ccc(C(F)(F)F)cc1-c1cncc(C#N)c1)=C2O	human NaPi-IIb (Homo sapiens, UniProt O95436)	4.95
C[C@]12CCCN1N(Cc1cccc(F)c1)C(=O)C(C(=O)Nc1ccc(Br)c(F)c1)=C2O	human NaPi-IIb (Homo sapiens, UniProt O95436)	4.90
C[C@]12CCCN1N(Cc1cccc(F)c1F)C(=O)C(C(=O)Nc1ccc(C(F)(F)F)cc1-c1cnc(C#N)cn1)=C2O	human NaPi-IIb (Homo sapiens, UniProt O95436)	4.99
CN1N(Cc2cccc(F)c2F)C(=O)C(C(=O)Nc2ccc(C(F)(F)F)cc2-c2ccc(C(F)(F)F)nc2)=C(O)C12CCC2	human NaPi-IIb (Homo sapiens, UniProt O95436)	5.59
CSc1ccc(-c2cc(C(F)(F)F)ccc2NC(=O)C2=C(O)[C@@]3(C)CCCN3N(Cc3ccc(OCCN4CCOCC4)c(F)c3F)C2=O)cn1	human NaPi-IIb (Homo sapiens, UniProt O95436)	4.96

Please look at the following molecule next.
Request: Consider the molecule shown here: `C#Cc1ccc(CN2C(=O)C(C(=O)Nc3ccc(C(F)(F)F)cc3-c3cc(C(F)(F)F)ncn3)=C(O)[C@@]3(C)CCCN23)c(F)c1F` What is its recorded pIC50?
Result: 5.26

###

Target: human NaPi-IIb (Homo sapiens, UniProt O95436)
Construct: expressed in transfected cells
Sequence (O95436 1-690): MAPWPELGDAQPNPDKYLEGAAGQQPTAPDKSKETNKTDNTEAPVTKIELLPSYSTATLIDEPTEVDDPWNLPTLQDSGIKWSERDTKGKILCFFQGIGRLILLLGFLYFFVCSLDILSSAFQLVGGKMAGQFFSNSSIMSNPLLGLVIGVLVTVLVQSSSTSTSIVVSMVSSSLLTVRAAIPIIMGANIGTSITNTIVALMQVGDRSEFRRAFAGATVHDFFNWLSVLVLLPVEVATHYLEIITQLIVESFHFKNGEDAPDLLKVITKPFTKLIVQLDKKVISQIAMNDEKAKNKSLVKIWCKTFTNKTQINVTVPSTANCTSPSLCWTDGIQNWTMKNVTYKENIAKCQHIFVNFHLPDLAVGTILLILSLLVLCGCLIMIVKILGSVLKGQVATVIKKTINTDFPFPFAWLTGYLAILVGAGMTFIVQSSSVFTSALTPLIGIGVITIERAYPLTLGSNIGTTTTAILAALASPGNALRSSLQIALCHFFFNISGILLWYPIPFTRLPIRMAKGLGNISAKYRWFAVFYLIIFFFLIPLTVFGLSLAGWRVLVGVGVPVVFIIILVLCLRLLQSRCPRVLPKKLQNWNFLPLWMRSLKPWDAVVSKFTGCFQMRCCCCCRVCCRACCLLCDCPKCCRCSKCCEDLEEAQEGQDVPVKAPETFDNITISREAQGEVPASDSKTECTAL
Assay: Inhibitory effect on 33PO4 uptake into human NaPi-IIb-expressing CHO cells
Format: cell-based
Conditions: read-out: IC50
observed.property: pIC50
Units for pIC50: none; it is -log10 of a concentration expressed in mol/L.

molecule	observed.property	endpoint.value
C[C@]12CCCN1N(Cc1cccc(OC(F)F)c1)C(=O)C(C(=O)Nc1ccc(C(F)(F)F)cc1-c1cc(C(F)(F)F)ncn1)=C2O [Example 177]	pIC50	4.95
C[C@]12CCCN1N(Cc1ccc(OCCCCCO)c(F)c1F)C(=O)C(C(=O)Nc1ccc(C(F)(F)F)cc1-c1cc(C(F)(F)F)ncn1)=C2O [Example 162]	pIC50	4.82

Please look at the following molecule next.
Request: Consider the molecule shown here: CCOC(=O)CCCCCCN1C(=O)C(C(=O)Nc2ccc(C(F)(F)F)cc2-c2ccc(C(F)(F)F)nc2)=C(O)[C@@]2(C)CCCN12 [Example 235] What is its recorded pIC50?
Result: 5.32
